# method: Quantitative High-Throughput drug screen in 47 multiple myeloma cell lines against the NCATS MIPE library collection: OCIMY5_PLB cell viability assay (AID 1918988); also: potency is read from the fitted curve at half-maximal effect; nearly all actives have a fitted effect of over 65% in size
# condition: OCI-MY5 myeloma viability, ATP luminescence, 48 h; series mostly up to 45.8 µM
Records with an inconclusive call do not appear. The source made the active and inactive calls. Calls follow the shape of the dose curve; as a rule, active = well fitted cell-killing curve with a large enough effect; inconclusive = small, poorly fitted or top-dose-only effect, or effect the other way; inactive = no such curve, though single readings can be large or run the other way.
observation-type: Potency

The cases that follow already have their Potency on record.
>>> result("COc1cc(CCc2cc(NC(=O)c3ccc(N4C[C@@H](C)N[C@@H](C)C4)cc3)n[nH]2)cc(OC)c1")
"16.6 µM (active)"
>>> result("CCS(=O)(=O)Nc1ccc2[nH]c(O)c(C(=Nc3ccc(CN4CCCCC4)cc3)c3ccccc3)c2c1")
"2.09 µM (active)"
>>> result("CN(C)c1ccc(C(=O)NCCCCCCC(=O)NO)cc1")
"0.469 µM (active)"
>>> result("NC(=NCCCCCCN=C(N)N=C(N)Nc1ccc(Cl)cc1)N=C(N)Nc1ccc(Cl)cc1")
"8.33 µM (active)"
>>> result("N#CNC(=NCCCCCCOc1ccc(Cl)cc1)Nc1ccncc1")
"0.0074 µM (active)"

Q. Value lookup for Potency; key = `CO[C@@H]1[C@@H](O)[C@H](O)[C@@H](n2c3c(Cl)cccc3c3c4c(c5c6cccc(Cl)c6[nH]c5c32)C(=O)NC4=O)O[C@@H]1CO`
A. 2.09 µM (active)

Q. Value lookup for Potency; key = `C[C@H](NCc1ccc2c(c1)nc(NC(=O)c1ccc(-c3cn[nH]c3)s1)n2CCc1ccccc1)C(C)(C)C`
A. 0.833 µM (active)

Q. Value lookup for Potency; key = CC(=O)SCC(Cc1ccccc1)C(=O)NCC(=O)OCc1ccccc1 (centres undefined)
A. 2.64 µM (active)
